Assay name: PTR-MS real-time headspace release, watermelon flavor model in water (Example 1)
Format: physicochemical
Measurement conditions: Sample B (1,3-propanediol) relative to Sample A (PG)
Binary call on Percent Release Difference with cut-off -20%: strictly below means met, and equality or higher means not met.

[
  {
    "Molecule": "CC=O [Acetaldehyde]",
    "Assigned label": "not met"
  },
  {
    "Molecule": "C/C=C\\C(=O)C1C(C)=CCCC1(C)C (stereo not drawn) [Alpha damascone]",
    "Assigned label": "met"
  },
  {
    "Molecule": "O=Cc1ccccc1 [Benzaldehyde]",
    "Assigned label": "not met"
  },
  {
    "Molecule": "CCC/C=C/C(=O)O [Trans-2-hexenoic acid]",
    "Assigned label": "not met"
  },
  {
    "Molecule": "CC(C=O)Cc1ccc(C(C)C)cc1 (stereo not drawn) [Cyclamen aldehyde]",
    "Assigned label": "not met"
  },
  {
    "Molecule": "CCCCCCC(C=O)=Cc1ccccc1 [Hexyl cinnamic aldehyde]",
    "Assigned label": "not met"
  }
]
